- Method: Pharmacokinetics of oral linifanib in plasma and urine, non-compartmental analysis, phase 1 study
- Type: in vivo, human (Japanese patients with solid tumors)
- Conditions: human, plasma, oral; 0.05 mg/kg once daily, multiple dose (C1D15), mean ± SD, N 3; read-out: T max
Endpoint name: Tmax (h)
Numbers only, in h.

// lookup Tmax for `Cc1ccc(F)c(NC(=O)Nc2ccc(-c3cccc4[nH]nc(N)c34)cc2)c1`
2.34

----------
- Method: Pharmacokinetics of oral linifanib in plasma and urine, non-compartmental analysis, phase 1 study
- Assay type: in vivo, human (Japanese patients with solid tumors)
- Conditions: human, plasma, oral, after repeated daily dosing, associated with accumulation ratio 1.5; read-out: effective half-life (converted)
Endpoint name: half-life (min)
Numbers only, in min.

// lookup half-life for `Cc1ccc(F)c(NC(=O)Nc2ccc(-c3cccc4[nH]nc(N)c34)cc2)c1`
900

----------
- Method: Pharmacokinetics of oral linifanib in plasma and urine, non-compartmental analysis, phase 1 study
- Format: in vivo, human (Japanese patients with solid tumors)
- Conditions: human, plasma, oral; 0.05 mg/kg once daily, multiple dose (C1D15), mean ± SD, N 3
- Description: Pharmacokinetic sampling occurred pre-dose and 0.5, 1, 2, 3, 4, 6, 8, and 24 h after single-dose linifanib on Cycle (C) 1D1, and pre-dose and 0.5, 1, 2, 3, 4, 6, and 8 h after multiple once-daily doses on C1D15. Urine was collected for 24-h after the C1D15 dose. Linifanib and its metabolite concentrations in plasma and urine were determined using a validated method based on triple quadruple tandem mass spectrometry with a lower limit of quantification of 1.0 ng/mL. […]
Endpoint name: Cmax (ng/mL)
Numbers only, in ng/mL.

// lookup Cmax for `Cc1ccc(F)c(NC(=O)Nc2ccc(-c3cccc4[nH]nc(N)c34)cc2)c1`
128

----------
- Method: Pharmacokinetics of oral linifanib in plasma and urine, non-compartmental analysis, phase 1 study
- Format: in vivo, human (Japanese patients with solid tumors)
- Conditions: human, plasma, oral, 0.1 mg/kg; 0.10 mg/kg once daily, multiple dose (C1D15), pre-dose concentration assumed equal to 24 h, mean ± SD, N 5; read-out: AUC24
Endpoint name: AUC (ng·h/mL)
Numbers only, in ng·h/mL.

// lookup AUC for `Cc1ccc(F)c(NC(=O)Nc2ccc(-c3cccc4[nH]nc(N)c34)cc2)c1`
2820

----------
- Method: Pharmacokinetics of oral linifanib in plasma and urine, non-compartmental analysis, phase 1 study
- Type: in vivo, human (Japanese patients with solid tumors)
- Conditions: human, plasma, oral, 0.2 mg/kg; 0.20 mg/kg once daily, multiple dose (C1D15), mean ± SD, N 3
Endpoint name: Cmax (µg/mL)
Answers are plain numbers, in µg/mL.

// lookup Cmax for `Cc1ccc(F)c(NC(=O)Nc2ccc(-c3cccc4[nH]nc(N)c34)cc2)c1`
0.39

----------
- Method: Pharmacokinetics of oral linifanib in plasma and urine, non-compartmental analysis, phase 1 study
- Type: in vivo, human (Japanese patients with solid tumors)
- Conditions: human, plasma; 0.05 mg/kg oral, single dose (C1D1), mean ± SD, N 3
Endpoint name: Cmax (ng/mL)
Numbers only, in ng/mL.

// lookup Cmax for Cc1ccc(F)c(NC(=O)Nc2ccc(-c3cccc4[nH]nc(N)c34)cc2)c1 [linifanib]
90

----------
- Method: Pharmacokinetics of oral linifanib in plasma and urine, non-compartmental analysis, phase 1 study
- Format: in vivo, human (Japanese patients with solid tumors)
- Conditions: human, plasma, oral; 0.05 mg/kg once daily, multiple dose (C1D15), pre-dose concentration assumed equal to 24 h, mean ± SD, N 3; read-out: AUC24
Endpoint name: AUC (ng·h/mL)
Answers are plain numbers, in ng·h/mL.

// lookup AUC for `Cc1ccc(F)c(NC(=O)Nc2ccc(-c3cccc4[nH]nc(N)c34)cc2)c1`
1920

These entries and their values trace back to paper PMC3362725.
